test: H69AR cell proliferation blockers – human, duplicate replicates, primary screen (AID 580); settings: H69AR lung tumor cells viability, ATP luminescence, 72 h; at 10 µM; active compounds read low;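 also: 100% = mean luminescence of untreated wells and 0% = no signal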
measurement kind: viability (%)
Numbers only, in %.

Example results:
* Nc1nc(N2CCCCC2)nc(N(c2ccccc2)c2ccccc2)n1 | 70.6
* COc1ccc(C(=O)NCc2nnc(SC)n2C2CCCCC2)cc1 | 92
* COc1c(C(=O)Nc2c(C)n(C)n(-c3ccccc3)c2=O)ccc2ccccc12 | 113
* O=C(Cn1cc2c(n1)CCCCC2)N1CCc2ccccc2C1 | 92.9

# batch: return viability for each of the 2 molecules below
1. O=C1c2ccccc2C(Nc2ccc(F)cc2F)N1CCN1CCOCC1 (stereo unspecified)
2. O=C(CSc1nnc(Cn2c(=O)sc3ccccc32)n1-c1ccccc1)NCC1CCCO1 (stereo unspecified)

Reply:
78.2
99.8

Origin of measurements: PubChem BioAssay
